Nociceptin receptor (Homo sapiens) measurements of Ki, listed per entry.
Sequence (P41146 whole entry): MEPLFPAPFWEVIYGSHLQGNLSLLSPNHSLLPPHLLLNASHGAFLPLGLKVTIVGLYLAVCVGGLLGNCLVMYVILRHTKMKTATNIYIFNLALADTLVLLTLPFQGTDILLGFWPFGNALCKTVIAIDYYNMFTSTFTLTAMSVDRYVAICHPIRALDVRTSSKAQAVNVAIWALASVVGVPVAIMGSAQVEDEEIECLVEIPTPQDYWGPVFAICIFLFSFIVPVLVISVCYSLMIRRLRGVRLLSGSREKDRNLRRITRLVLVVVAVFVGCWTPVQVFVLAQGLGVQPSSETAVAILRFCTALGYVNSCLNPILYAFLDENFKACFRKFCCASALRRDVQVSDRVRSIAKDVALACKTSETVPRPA
Report as a plain number; the unit µM is understood.

Hi! What's the reported Ki for CN(C)C(=O)C(CCN1CCC(O)(c2ccc(Cl)c(C(F)(F)F)c2)CC1)(c1ccccc1)c1ccccc1 [FLUPERAMIDE] on Nociceptin receptor (Homo sapiens)?
2.15

Consider the record given below.
Hi! What's the reported Ki for "CN(C)C(=O)C(CCN1CCC(O)(c2cccc(C(F)(F)F)c2)CC1)(c1ccccc1)c1ccccc1" on Nociceptin receptor (Homo sapiens)?
0.505

====

Target: Mu-type opioid receptor (Homo sapiens, UniProt P35372)
Sequence (P35372 whole entry): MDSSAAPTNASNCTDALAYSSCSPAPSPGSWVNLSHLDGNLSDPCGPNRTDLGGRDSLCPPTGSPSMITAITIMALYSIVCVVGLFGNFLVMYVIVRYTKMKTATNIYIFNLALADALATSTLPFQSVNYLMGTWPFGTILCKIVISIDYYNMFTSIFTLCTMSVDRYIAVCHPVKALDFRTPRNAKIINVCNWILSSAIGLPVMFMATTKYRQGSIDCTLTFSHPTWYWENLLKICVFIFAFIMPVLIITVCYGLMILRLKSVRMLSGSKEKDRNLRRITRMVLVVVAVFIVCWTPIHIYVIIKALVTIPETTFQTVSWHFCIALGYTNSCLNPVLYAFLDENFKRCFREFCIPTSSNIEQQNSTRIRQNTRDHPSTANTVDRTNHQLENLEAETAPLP
Experiment: Binding affinity for recombinant human mu-opioid receptor was determined by using [3H]- diprenophine radioligand
# pKi per entry
Bear in mind: pKi is minus log10 of a mol/L concentration; give just that figure.

Could you share which pKi value was measured for "OC1(c2ccc(Cl)c(C(F)(F)F)c2)CCN(Cc2ccc(C(F)(F)F)cc2)CC1" ?
6.98

Could you share which pKi value was measured for CN(C)C(=O)C(CCN1CCC(O)(c2ccc(Cl)c(C(F)(F)F)c2)CC1)(c1ccccc1)c1ccccc1 [FLUPERAMIDE] ?
9.96

Could you share which pKi value was measured for [O-][N+]1(CCC(c2ccccc2)c2ccccc2)CCC(O)(c2cccc(C(F)(F)F)c2)CC1 (stereo not given) ?
5.09

Consider the record given below.
Could you share which pKi value was measured for "CN(C)C(=O)C(CCN1CCC(O)(c2cccc(C(F)(F)F)c2)CC1)(c1ccccc1)c1ccccc1" ?
9.80

====

pKi: −log10 of the molar value.
Nociceptin receptor (Homo sapiens) measurements of pKi, listed per entry.

Could you share which pKi value was measured for "O=C(O)C(CCN1CCC(O)(c2cccc(C(F)(F)F)c2)CC1)(c1ccccc1)c1ccccc1" ?
< 5.00

Could you share which pKi value was measured for "O=C(O)C(CCN1CCC(O)(c2ccc(Cl)cc2)CC1)(c1ccccc1)c1ccccc1" ?
< 5.00

Consider the record given below.
Could you share which pKi value was measured for CN(C)C(=O)C(CCN1CCC(O)(c2ccc(Cl)cc2)CC1)(c1ccccc1)c1ccccc1 [LOPERAMIDE] ?
< 5.00
